Hello, the source for this data is ChEMBL document CHEMBL1134541, in case you need it.

# IC50 per entry
Target: Stromelysin-1 (Homo sapiens, UniProt P08254)
Sequence (P08254 whole entry): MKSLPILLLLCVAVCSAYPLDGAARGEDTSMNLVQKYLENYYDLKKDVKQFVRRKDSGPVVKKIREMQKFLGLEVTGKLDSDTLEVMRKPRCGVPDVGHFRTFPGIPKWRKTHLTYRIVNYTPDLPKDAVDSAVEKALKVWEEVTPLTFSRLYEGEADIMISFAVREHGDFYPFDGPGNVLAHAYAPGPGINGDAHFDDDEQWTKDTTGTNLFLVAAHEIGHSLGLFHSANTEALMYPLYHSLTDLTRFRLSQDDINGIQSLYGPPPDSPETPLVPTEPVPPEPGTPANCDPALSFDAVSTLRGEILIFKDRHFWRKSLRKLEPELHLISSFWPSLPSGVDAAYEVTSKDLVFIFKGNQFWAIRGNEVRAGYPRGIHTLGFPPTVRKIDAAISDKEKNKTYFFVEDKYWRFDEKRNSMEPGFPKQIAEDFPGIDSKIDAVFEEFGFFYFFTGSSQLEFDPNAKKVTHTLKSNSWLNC
Assay: In vitro inhibitory activity against matrix metalloprotease-3
Return type: number; implicit unit µM.

{"columns": ["compound", "IC50 [µM]"],
 "data": [
  ["CCCCOc1ccc(S(=O)(=O)NC(C(=O)O)C2CCN(C(=O)OCCOC)CC2)cc1 (configuration not stated)", 0.678],
  ["COc1ccc(-c2ccc(S(=O)(=O)N[C@H](C(=O)O)C3CCN(C(=O)OC(C)(C)C)CC3)cc2)cc1", 0.345],
  ["COCCOC(=O)N1CCC(C(NS(=O)(=O)c2ccc(-c3ccc(OC)cc3)cc2)C(=O)O)CC1 (stereo in doubt; 13g)", 0.133],
  ["COCCOC(=O)N1CCC(C(NS(=O)(=O)c2ccc(-c3ccccc3)cc2)C(=O)O)CC1 (configuration not stated)", 0.418]
]}

Specify measured IC50 for COCCOC(=O)N1CCC(C(C(=O)O)N(CCOC)S(=O)(=O)c2ccc(-c3ccc(OC)cc3)cc2)CC1 (configuration not stated) . 0.0455

Specify measured IC50 for COc1ccc(-c2ccc(S(=O)(=O)NC(C(=O)O)C3CCN(C(=O)CC(C)C)CC3)cc2)cc1 (configuration not stated) . 0.739

Specify measured IC50 for COc1ccc(-c2ccc(S(=O)(=O)NC(C(=O)O)C3CCN(C(=O)OC(C)(C)C)CC3)cc2)cc1 (configuration not stated) . 0.0564
